- Test system: KM12
- Assay Name: NCI-60 one-dose screen
- Format: cell-based
- Experimental Context: Homo sapiens; KM12, Colon Cancer panel; single dose 10^−5 M; read-out: Growth inhibition %
Below is a list of entries, each paired with its recorded inhibition at 10 µM value.
Field format: number, assumed %, no unit text.

# annotated cases, reported inhibition at 10 µM shown
Compound: Cc1ccc(CNc2c3ccccc3nc3ccccc23)cc1
Measured Value: 76.5
//
Compound: c1coc(CNc2c3ccccc3nc3ccccc23)c1
Measured Value: 14.5
//
Compound: Cc1ccc2nc3ccccc3c(NCc3ccc(Cl)cc3)c2c1
Measured Value: 22.9
//
Compound: Cc1ccc2nc3ccccc3c(NCc3ccccc3)c2c1
Measured Value: 43.7

Param readout= inhibition at 10 µM; system= KM12; entry= `COc1ccc2nc3ccccc3c(NCc3ccccc3)c2c1` ; returns value.
63.5

Next: `COc1cccc(CNc2c3ccccc3nc3ccccc23)c1OC`
47.6

Next: `Fc1ccc(CNc2c3ccccc3nc3ccccc23)c(F)c1`
40

Next: `COc1ccc(CNc2c3ccccc3nc3ccc(OC)cc23)cc1`
72.4
